Test method notes: In vivo conversion to telcagepant after IV dosing, rat (plasma AUC by LC/MS)
Condition summary: 3.53 umol/kg, IV dose 3.53 μmol/kg, DMSO vehicle, plasma AUC of Compound 1 (telcagepant)
Measured parameter: AUC (µM·h)

> print(dat)
                                   molecule  endpoint.result
1  O=C(N[C@@H]1CC[C@@H](c2cccc(F)c2F)CN(CC(F)(F)F)C1=O)N1CCC(n2c(=O)[nH]c3ncccc32)CC1 [Telcagepant]             6.46

----------
Test method notes: Aqueous solubility
Type: physicochemical
Condition summary: aqueous solution, aqueous buffer; pH 9.0
Text: The compounds of the present invention may have improved aqueous solubility compared with telcagepant.
Measured parameter: solubility

> print(dat)
                               given.smiles  measured.parameter  endpoint.result
1  O=C(N[C@@H]1CC[C@@H](c2cccc(F)c2F)CN(CC(F)(F)F)C1=O)N1CCC(n2c(=O)n(COP(=O)([O-])O)c3ncccc32)CC1.[Na+]          solubility      > 150 mg/mL
